target: Human neutrophil elastase (HNE) (Homo sapiens, UniProt P08246); construct: HNE (EC 3.4.21.37) from human leukocytes was purchased; purchased Innovative Research Company (Novi, Michigan); host or cells: human leukocytes (natural source); test: HNE activity inhibitory bioassay (MeO-Suc-Ala-Ala-Pro-Val-pNA hydrolysis, absorbance 405 nm); type: biochemical; conditions: 1 µM compound; n = 3
Tag: satisfied if measured Anti-HNE activity, inhibitory ratio is not below 9%, not satisfied if it is.

Solved entries (count: 4):
# Chemical Smiles, Discrete Label
measured = [
    ("C[C@H]1[C@H](C)CC[C@]2(C(=O)O)CC[C@]3(C)C(=CC[C@@H]4[C@@]5(C)CC[C@H](O)C(C)(C)[C@@H]5CC[C@]43C)[C@H]12", "satisfied"),
    ("C=C(C)[C@@H]1CC[C@]2(C(=O)O)CC[C@]3(C)[C@H](CC[C@@H]4[C@@]5(C)CC[C@H](O)C(C)(C)[C@@H]5CC[C@]43C)[C@@H]12", "not satisfied"),
    ("C=C(C)[C@@H]1CC[C@]2(C)CC[C@]3(C)[C@H](CC[C@@H]4[C@@]5(C)CC[C@H](O)C(C)(C)[C@@H]5CC[C@]43C)[C@@H]12", "satisfied"),
    ("CC1(C)[C@@H](O)CC[C@]2(C)[C@H]3C(=O)C=C4[C@@H]5C[C@@](C)(C(=O)O)CC[C@]5(C)CC[C@@]4(C)[C@]3(C)CC[C@@H]12", "not satisfied"),
]

# evaluate next
Problem: Can CC1(C)[C@@H](O[C@H]2O[C@H](C(=O)O)[C@@H](O)[C@H](O)[C@H]2O[C@@H]2O[C@H](C(=O)O)[C@@H](O)[C@H](O)[C@H]2O)CC[C@]2(C)[C@H]3C(=O)C=C4[C@@H]5C[C@@](C)(C(=O)O)CC[C@]5(C)CC[C@@]4(C)[C@]3(C)CC[C@@H]12 be said to have Anti-HNE activity, inhibitory ratio at or above 9%?
Result: satisfied

====

target: Human neutrophil elastase (HNE) (Homo sapiens); construct: HNE (EC 3.4.21.37) from human leukocytes was purchased; purchased Innovative Research Company (Novi, Michigan); host or cells: human leukocytes (natural source); test: HNE activity inhibitory bioassay (MeO-Suc-Ala-Ala-Pro-Val-pNA hydrolysis, absorbance 405 nm); format: biochemical; settings: 10 µM compound; n = 3
Respond with Yes for Anti-HNE activity, inhibitory ratio values of 70% and above, No for values below.

Problem: Check the entry CC1(C)[C@@H](O[C@H]2O[C@H](C(=O)O)[C@@H](O)[C@H](O)[C@H]2O[C@@H]2O[C@H](C(=O)O)[C@@H](O)[C@H](O)[C@H]2O)CC[C@]2(C)[C@H]3C(=O)C=C4[C@@H]5C[C@@](C)(C(=O)O)CC[C@]5(C)CC[C@@]4(C)[C@]3(C)CC[C@@H]12 : does Anti-HNE activity, inhibitory ratio equal or exceed 70%?
Result: No

Problem: Moving on to the next compound: C=C(C)[C@@H]1CC[C@]2(C)CC[C@]3(C)[C@H](CC[C@@H]4[C@@]5(C)CC[C@H](O)C(C)(C)[C@@H]5CC[C@]43C)[C@@H]12
Result: No

Problem: Another compound: C=C(C)[C@@H]1CC[C@]2(C(=O)O)CC[C@]3(C)[C@H](CC[C@@H]4[C@@]5(C)CC[C@H](O)C(C)(C)[C@@H]5CC[C@]43C)[C@@H]12
Result: Yes

Problem: Moving on to the next compound: C[C@H]1[C@H](C)CC[C@]2(C(=O)O)CC[C@]3(C)C(=CC[C@@H]4[C@@]5(C)CC[C@H](O)C(C)(C)[C@@H]5CC[C@]43C)[C@H]12
Result: Yes

Problem: One more compound: CC1(C)[C@@H](O)CC[C@]2(C)[C@H]3C(=O)C=C4[C@@H]5C[C@@](C)(C(=O)O)CC[C@]5(C)CC[C@@]4(C)[C@]3(C)CC[C@@H]12
Result: No

====

Molecular target: Human neutrophil elastase (HNE) (Homo sapiens, UniProt P08246)
Construct: HNE (EC 3.4.21.37) from human leukocytes was purchased; purchased Innovative Research Company (Novi, Michigan); host or cells: human leukocytes (natural source)
Sequence (P08246 30-247 limits assumed): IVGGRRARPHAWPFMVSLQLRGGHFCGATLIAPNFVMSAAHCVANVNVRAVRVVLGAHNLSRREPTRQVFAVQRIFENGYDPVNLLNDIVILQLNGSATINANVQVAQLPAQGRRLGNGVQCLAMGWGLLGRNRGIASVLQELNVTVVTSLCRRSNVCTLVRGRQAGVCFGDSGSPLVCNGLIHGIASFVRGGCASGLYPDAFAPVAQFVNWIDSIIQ
Assay: HNE activity inhibitory bioassay (MeO-Suc-Ala-Ala-Pro-Val-pNA hydrolysis, absorbance 405 nm)
Format: biochemical
Settings: 3 µM compound; n = 3
Experimental Readout: Anti-HNE activity, inhibitory ratio (%)
Answers are plain numbers, in %.

Before answering, review these 2 worked examples.
# Compound, Measured On, Readout Value
records = [
    ("C[C@H]1[C@H](C)CC[C@]2(C(=O)O)CC[C@]3(C)C(=CC[C@@H]4[C@@]5(C)CC[C@H](O)C(C)(C)[C@@H]5CC[C@]43C)[C@H]12 [Compound 1, ursolic acid]", "Human neutrophil elastase (HNE) (Homo sapiens, UniProt P08246)", 36.47),
    ("CC1(C)[C@@H](O)CC[C@]2(C)[C@H]3C(=O)C=C4[C@@H]5C[C@@](C)(C(=O)O)CC[C@]5(C)CC[C@@]4(C)[C@]3(C)CC[C@@H]12 [Compound 3, glycyrrhetinic acid]", "Human neutrophil elastase (HNE) (Homo sapiens, UniProt P08246)", 1.05),
]

Provide each entry's Anti-HNE activity, inhibitory ratio from the list below.
1. C=C(C)[C@@H]1CC[C@]2(C(=O)O)CC[C@]3(C)[C@H](CC[C@@H]4[C@@]5(C)CC[C@H](O)C(C)(C)[C@@H]5CC[C@]43C)[C@@H]12 [Compound 5, betulinic acid]
2. CC1(C)[C@@H](O[C@H]2O[C@H](C(=O)O)[C@@H](O)[C@H](O)[C@H]2O[C@@H]2O[C@H](C(=O)O)[C@@H](O)[C@H](O)[C@H]2O)CC[C@]2(C)[C@H]3C(=O)C=C4[C@@H]5C[C@@](C)(C(=O)O)CC[C@]5(C)CC[C@@]4(C)[C@]3(C)CC[C@@H]12 [Compound 4, glycyrrhizin]
3. C=C(C)[C@@H]1CC[C@]2(C)CC[C@]3(C)[C@H](CC[C@@H]4[C@@]5(C)CC[C@H](O)C(C)(C)[C@@H]5CC[C@]43C)[C@@H]12 [Compound 6, lupeol]

Result:
[46.57, 19.00, 19.01]

The measured values listed here are drawn from paper PMC3869726.
